These data points were gathered from patent US9688662B2.

Molecular target: PERK (Homo sapiens)
Experiment: Cell-based PERK inhibition assay (TR-FRET, phosphorylation of GFP-eIF2 alpha in HEK293 cells, tunicamycin)
Conditions: HEK293 (LanthaScreen eIF2α GripTite) cells, compounds 60 min, tunicamycin 2 microg/ml 120 min
Measurement label: P-eIF2alpha_Lantha_cell pIC50

[
  {
    "Smiles repr": "COc1cc2ncnc(Nc3ccc4c(c3F)CCN4C(=O)Cc3c(C)[nH]c4ccccc34)c2cc1OC",
    "Measurement label": "P-eIF2alpha_Lantha_cell pIC50",
    "Quantitative readout": 7.9
  },
  {
    "Smiles repr": "COc1cc2ncnc(Nc3ccc4c(c3)CCN4C(=O)Cc3c(C)[nH]c4c(F)cccc34)c2cc1OC",
    "Measurement label": "P-eIF2alpha_Lantha_cell pIC50",
    "Quantitative readout": 7.4
  },
  {
    "Smiles repr": "COc1cc2ncnc(Nc3ccc4c(c3)CCN4C(=O)Cn3c(C)cc4ccc(F)cc43)c2cc1OC",
    "Measurement label": "P-eIF2alpha_Lantha_cell pIC50",
    "Quantitative readout": 7.1
  },
  {
    "Smiles repr": "COc1cc2ncnc(Nc3ccc4c(c3)CCN4C(=O)Cc3ccn(C)n3)c2cc1OC",
    "Measurement label": "P-eIF2alpha_Lantha_cell pIC50",
    "Quantitative readout": 5.1
  }
]

###

Listed here: items and their measured IC50.
Target: PERK (Homo sapiens, UniProt Q9NZJ5)
Sequence (Q9NZJ5 30-1116): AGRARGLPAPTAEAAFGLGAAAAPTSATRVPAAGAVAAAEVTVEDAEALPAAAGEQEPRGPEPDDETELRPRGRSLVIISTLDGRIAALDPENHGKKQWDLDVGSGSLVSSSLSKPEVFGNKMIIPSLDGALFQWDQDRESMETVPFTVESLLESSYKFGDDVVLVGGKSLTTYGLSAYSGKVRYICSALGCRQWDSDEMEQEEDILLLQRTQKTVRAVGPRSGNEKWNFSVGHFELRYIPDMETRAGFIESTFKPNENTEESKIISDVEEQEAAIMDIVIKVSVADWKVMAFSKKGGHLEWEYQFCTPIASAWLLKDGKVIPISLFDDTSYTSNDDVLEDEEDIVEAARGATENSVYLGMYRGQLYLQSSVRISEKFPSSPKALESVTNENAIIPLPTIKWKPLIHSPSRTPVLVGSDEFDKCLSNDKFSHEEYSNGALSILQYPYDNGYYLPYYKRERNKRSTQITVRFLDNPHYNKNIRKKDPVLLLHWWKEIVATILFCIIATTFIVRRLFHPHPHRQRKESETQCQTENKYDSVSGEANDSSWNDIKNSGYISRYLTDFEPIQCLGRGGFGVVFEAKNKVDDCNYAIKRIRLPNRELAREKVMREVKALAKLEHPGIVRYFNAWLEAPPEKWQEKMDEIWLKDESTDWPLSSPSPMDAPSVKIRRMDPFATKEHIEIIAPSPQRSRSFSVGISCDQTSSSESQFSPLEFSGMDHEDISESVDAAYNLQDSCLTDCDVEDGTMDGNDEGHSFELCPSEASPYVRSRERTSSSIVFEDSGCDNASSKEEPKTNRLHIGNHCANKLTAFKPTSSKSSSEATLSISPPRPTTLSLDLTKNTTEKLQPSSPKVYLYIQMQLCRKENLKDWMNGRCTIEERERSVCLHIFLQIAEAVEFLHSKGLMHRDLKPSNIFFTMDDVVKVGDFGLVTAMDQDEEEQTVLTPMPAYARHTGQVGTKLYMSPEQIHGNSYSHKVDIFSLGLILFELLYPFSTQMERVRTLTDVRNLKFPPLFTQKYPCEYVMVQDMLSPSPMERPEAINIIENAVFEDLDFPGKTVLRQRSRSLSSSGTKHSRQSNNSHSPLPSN
Assay: In-vitro PERK enzyme inhibition assay (LanthaScreen, KIN_PERK)
Type: biochemical
Design: GST (N); purchased Invitrogen PV5106
Conditions: recombinant GST-PERK, GFP-eIF2 alpha substrate, 5 μM ATP, 60 minutes; read-out: KIN_PERK pIC50 (converted)

[
  {
    "Smiles repr": "COc1cc2ncnc(Nc3ccc4c(c3)CCN4C(=O)Cc3n[nH]c4ccc(F)cc34)c2cc1OC",
    "IC50 (nM)": 31.6
  },
  {
    "Smiles repr": "COc1cc2ncnc(Nc3ccc4c(c3)CCN4C(=O)Cc3cn(C)c4ccccc34)c2cc1OC",
    "IC50 (nM)": 5.01
  },
  {
    "Smiles repr": "COc1cc2ncnc(Nc3ccc4c(c3)CCN4C(=O)Cc3nn(C)c4ccccc34)c2cc1OC",
    "IC50 (nM)": 20
  }
]
